# System: HCT116 MTAP null cells
# test.details: HCT116 proliferation assay, MTAP null cells (CellTiter-Glo, 6 days)
# Assay type: cell-based
# measurement.parameters: HCT116-MTAP null, 144 h, read-out: Protif_ HCT116-MTAP null IC50
metric: IC50 (nM)

I. Cc1cc2cc(C(=O)N(Cc3ccc(C(F)(F)F)cn3)[C@H](C)c3ncccn3)ncc2nc1N [Example 374]
II. CO[C@H](CN(Cc1ccc(C(F)(F)F)cn1)C(=O)c1ccc2nc(N)c(C)cc2c1)C(F)(F)F (single isomer, unassigned) [Example 453]
Of I and II , which carries the smaller reported IC50 figure? Answer = label.
II
